Taken from patent US4259235A.

# System: Mentha piper.
# PROTOCOL TEXT: Herbicidal action, pre- and postemergence application in the greenhouse
# Format: in vivo
# CONDITION PARAMETERS: post-emergence; 3.0 kg/ha POST; read-out: % damage
ASSAY METRIC: pest or weed control at 3000 g/ha (%)
Enter your answer as a number in %; do not include the unit.

Task: State its pest or weed control at 3000 g/ha: OC1C(O)C2CC1C1N=NC21 (stereo not shown)
Output: 100

Task: Provide one value: measured pest or weed control at 3000 g/ha of C1C2C3N=NC3C1C1OC21 (stereo not shown) [drawing 445]
Output: 100

Continuing:
Task: Consider the molecule O=C1NC2C3CC(C(Br)C3Br)C12 (stereo not shown) . State its measured pest or weed control at 3000 g/ha.
Output: 40

* * *

# Tested on: spring wheat
# PROTOCOL TEXT: Growth height of spring wheat, leaf treatment, Example 10
# Assay type: in vivo, spring wheat ("Opal" variety)
# CONDITION PARAMETERS: 1.5 kg/ha
ASSAY METRIC: Plant height (cm)
The response must be a number in cm with no trailing unit.

Task: Give a short answer stating reported Plant height for Clc1ccc(C2=NOC3C4CC(C5N=NC45)C23)cc1 (stereo not shown) [drawing 402] .
Output: 29.0

Task: Specify Plant height for O=[N+]([O-])c1ccc(C2=NOC3C4CC(C5N=NC45)C23)cc1 (stereo not shown) [drawing 400] and stop.
Output: 29.0

Task: Look up and report measured Plant height for this entry: Clc1ccc(C2N=NC3C4CC(C5N=NC45)C23)cc1 (stereo not shown) [drawing 398]
Output: 23.5

Task: Determine from records and report Plant height for Brc1ccc(C2=NOC3C4CC(C5N=NC45)C23)cc1 (stereo not shown) [drawing 399]
Output: 29.0

Task: Please report the measured Plant height for Cc1ccc(C2=NOC3C4CC(C5N=NC45)C23)cc1 (stereo not shown) [drawing 401]
Output: 29.5

Task: Given O=P(O)(O)CCCl [Ethephon, β-chloroethylphosphonic acid, reference compound] , respond with its Plant height.
Output: 30.0

Continuing:
Task: Read the entry FC(F)(F)c1cccc(NC2C(I)C3CC2C2N=NC32)c1 (stereo not shown) [drawing 403] and write its reported Plant height.
Output: 27.5

* * *

The following compounds are listed with their measured Plant height values.
# System: spring barley
# PROTOCOL TEXT: Growth height of spring barley, leaf treatment, Example 10
# Assay type: in vivo, spring barley ("Union" variety)
# CONDITION PARAMETERS: 1.5 kg/ha
# output: bare number, implied unit cm

Consider the following illustrative entries.
Task: Specify measured Plant height for Clc1ccc(C2=NOC3C4CC(C5N=NC45)C23)cc1 (stereo not shown) [drawing 414] .
Output: 26.0

Task: Give the value of Plant height reported for the following: O=P(O)(O)CCCl [Ethephon, β-chloroethylphosphonic acid, reference compound]
Output: 27.0

Task: In one line, give reported Plant height of the entry Clc1ccc(C2N=NC3C4CC(C5N=NC45)C23)cc1 (stereo not shown) [drawing 410] .
Output: 22.0

Task: Quick one: give measured Plant height for Brc1ccc(C2=NOC3C4CC(C5N=NC45)C23)cc1 (stereo not shown) [drawing 411]
Output: 25.5

Task: Please give measured Plant height of the following entry: O=[N+]([O-])c1ccc(C2=NOC3C4CC(C5N=NC45)C23)cc1 (stereo not shown) [drawing 412]
Output: 25.0

Task: Fill in reported Plant height for this entry: Cc1ccc(C2=NOC3C4CC(C5N=NC45)C23)cc1 (stereo not shown) [drawing 413]
Output: 25.5

New cases:
Task: Find the measured Plant height of FC(F)(F)c1cccc(NC2C(I)C3CC2C2N=NC32)c1 (stereo not shown) [drawing 415] and report it.
Output: 25.0
